Value source: ChEMBL document CHEMBL5550178

Test system: NCI-H1299
Experiment: Cytotoxicity against human NCI-H1299 cells assessed as inhibition of cell growth measured after 8 days by XTT cell viability assay
Format: functional, cell-based
Conditions: NCI-H1299, 192 h
readout: IC50 (nM)
Give a bare numeral; the unit nM is implied.

Request: I'd like to know its IC50. The compound in question is CC[C@H](C)[C@@H]([C@@H](CC(=O)N1CCC[C@H]1[C@H](OC)[C@@H](C)C(=O)N[C@@H](Cc1ccccc1)Cn1cc(CO)nn1)OC)N(C)C(=O)[C@@H](NC(=O)[C@H](C(C)C)N(C)C)C(C)C
Response: 7.8

Request: Entry to check: CC[C@H](C)[C@@H]([C@@H](CC(=O)N1CCC[C@H]1[C@H](OC)[C@@H](C)C(=O)N[C@@H](Cc1ccccc1)c1nc(CN)cs1)OC)N(C)C(=O)[C@@H](NC(=O)[C@H](C(C)C)N(C)C)C(C)C
Response: 3.1

Request: Entry to check: CC[C@H](C)[C@@H]([C@@H](CC(=O)N1CCC[C@H]1[C@H](OC)[C@@H](C)C(=O)N[C@@H](Cc1ccccc1)Cn1cc(CN)nn1)OC)N(C)C(=O)[C@@H](NC(=O)[C@H](C(C)C)N(C)C)C(C)C
Response: 18.7

New cases:
Request: I'd like to know its IC50. The compound in question is CC[C@H](C)[C@@H]([C@@H](CC(=O)N1CCC[C@H]1[C@H](OC)[C@@H](C)C(=O)N[C@@H](Cc1ccccc1)Cn1cc(C(=O)O)nn1)OC)N(C)C(=O)[C@@H](NC(=O)[C@H](C(C)C)N(C)C)C(C)C
Response: 137

Request: Entry to check: CC[C@H](C)[C@@H]([C@@H](CC(=O)N1CCC[C@H]1[C@H](OC)[C@@H](C)C(=O)N[C@@H](Cc1ccccc1)Cn1cc(CNC)nn1)OC)N(C)C(=O)[C@@H](NC(=O)[C@H](C(C)C)N(C)C)C(C)C
Response: 4.7

---

Test: Cytotoxicity against human Fibroblast cells assessed as inhibition of cell growth measured after 8 days by XTT cell viability assay
Type: toxicity, cell-based
Criterion: IC50 at 8 days strictly under 50 nM. Met: satisfied. Not met: not satisfied.

Illustrative cases are given below, each with its answer.
Request: Strictly below 50 nM: is that where IC50 at 8 days of CC[C@H](C)[C@@H]([C@@H](CC(=O)N1CCC[C@H]1[C@H](OC)[C@@H](C)C(=O)N[C@@H](Cc1ccccc1)Cn1cc(C(=O)O)nn1)OC)N(C)C(=O)[C@@H](NC(=O)[C@H](C(C)C)N(C)C)C(C)C sits?
Response: satisfied

Request: Entry to check: CC[C@H](C)[C@@H]([C@@H](CC(=O)N1CCC[C@H]1[C@H](OC)[C@@H](C)C(=O)N[C@@H](Cc1ccccc1)Cn1cc(CN)nn1)OC)N(C)C(=O)[C@@H](NC(=O)[C@H](C(C)C)N(C)C)C(C)C
Response: not satisfied

Request: Entry to check: CC[C@H](C)[C@@H]([C@@H](CC(=O)N1CCC[C@H]1[C@H](OC)[C@@H](C)C(=O)N[C@@H](Cc1ccccc1)c1nc(CN)cs1)OC)N(C)C(=O)[C@@H](NC(=O)[C@H](C(C)C)N(C)C)C(C)C
Response: satisfied

Okay, next one:
Request: Strictly below 50 nM: is that where IC50 at 8 days of CC[C@H](C)[C@@H]([C@@H](CC(=O)N1CCC[C@H]1[C@H](OC)[C@@H](C)C(=O)N[C@@H](Cc1ccccc1)Cn1cc(CNC)nn1)OC)N(C)C(=O)[C@@H](NC(=O)[C@H](C(C)C)N(C)C)C(C)C sits?
Response: satisfied
